Source: paper PMC8693849

System: S. pyogenes (ATCC 19615)
ASSAY NOTES: Agar diffusion method, zone of inhibition
Type: cell-based, Streptococcus pyogenes
PROTOCOL CONDITIONS: Streptococcus pyogenes, ATCC19615, 24 h, read-out: Diameter of zone inhibition
Listed below: zone of inhibition at 15 µg/mL values for each entry.
REPORTED METRIC: zone of inhibition at 15 µg/mL (mm)

>>> meas_value("CC(C(=O)O)N1C2=NC(c3ccc(Cl)cc3)C3=C(CCCC3=O)N2NC1(C)c1ccccc1O (stereo not shown)")
24
>>> meas_value("CCOC(=O)C1=C(C)N2NC(C)(c3ccccc3O)N(C(C)C(=O)O)C2=NC1c1ccc(Cl)cc1 (stereo not shown)")
24
>>> meas_value("CC(C(=O)O)N1C2=NC(c3ccc(Cl)cc3)C3=C(CC(C)(C)CC3=O)N2NC1(C)c1ccccc1O (stereo not shown)")
20
>>> meas_value("CC(C(=O)O)N1c2nc(-c3ccc(Cl)cc3)c(C#N)c(=O)n2NC1c1ccccc1O (stereo not shown)")
27
>>> meas_value("CC(C(=O)O)N1C2=NC(c3ccc(Cl)cc3)c3c([nH]c(=O)[nH]c3=O)N2NC1(C)c1ccccc1O (stereo not shown)")
25
>>> meas_value("CC(C(=O)O)N1c2nc(-c3ccc(Cl)cc3)c(C#N)c(=O)n2NC1(C)c1ccccc1O (stereo not shown)")
25
>>> meas_value("CC(=O)OCC1=C(C(=O)O)N2C(=O)[C@@H](NC(=O)Cc3cccs3)[C@H]2SC1 [Cephalothin, reference compound]")
30
